target_or_system: hTRPML1∆NC-YFP (Homo sapiens)
Sequence (Q9GZU1 whole entry): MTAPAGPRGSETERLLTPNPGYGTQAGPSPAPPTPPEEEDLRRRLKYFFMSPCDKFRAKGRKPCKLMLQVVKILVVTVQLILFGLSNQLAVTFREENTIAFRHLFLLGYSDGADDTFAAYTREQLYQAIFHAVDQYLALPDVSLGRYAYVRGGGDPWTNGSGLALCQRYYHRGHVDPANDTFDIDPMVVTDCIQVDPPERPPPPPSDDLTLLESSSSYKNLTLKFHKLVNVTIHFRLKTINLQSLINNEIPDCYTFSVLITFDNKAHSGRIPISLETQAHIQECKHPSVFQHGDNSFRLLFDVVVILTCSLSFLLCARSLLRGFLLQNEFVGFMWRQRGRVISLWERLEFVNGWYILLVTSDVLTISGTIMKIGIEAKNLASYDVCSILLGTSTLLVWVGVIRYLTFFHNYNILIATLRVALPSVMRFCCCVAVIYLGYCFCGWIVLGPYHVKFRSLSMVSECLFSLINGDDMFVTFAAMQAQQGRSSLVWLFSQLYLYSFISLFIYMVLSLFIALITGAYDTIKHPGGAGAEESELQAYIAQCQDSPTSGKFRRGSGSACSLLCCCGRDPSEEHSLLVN
Type: cell-based
assay_context: 12.5 µM compound, 5 µM ML-SA1, Fig. 1f
observable: inhibitory effect on TRPML1

C[C@]12CC[C@@H]3c4ccc(O)cc4C[C@@H](CCCCCCCCC[S+]([O-])CCCC(F)(F)C(F)(F)F)[C@H]3[C@@H]1CC[C@@H]2O (stereo partly shown) [fulvestrant, reference compound] ... no effect
C#CC1(O)CC[C@H]2[C@@H]3CCC4=CC(=O)CC[C@@H]4[C@H]3CC[C@@]21CC (mixture of isomers) [norgestrel, reference compound] ... no effect
C[C@]12CC[C@@H]3c4ccc(O)cc4CC[C@H]3[C@@H]1CCC2=O [estrone, reference compound] ... no effect
